tested-target: T1, mouse CXCR5 (mouse, UniProt Q04683 1-374)
T1 construct: whole, on cells
T1 sequence (looked up): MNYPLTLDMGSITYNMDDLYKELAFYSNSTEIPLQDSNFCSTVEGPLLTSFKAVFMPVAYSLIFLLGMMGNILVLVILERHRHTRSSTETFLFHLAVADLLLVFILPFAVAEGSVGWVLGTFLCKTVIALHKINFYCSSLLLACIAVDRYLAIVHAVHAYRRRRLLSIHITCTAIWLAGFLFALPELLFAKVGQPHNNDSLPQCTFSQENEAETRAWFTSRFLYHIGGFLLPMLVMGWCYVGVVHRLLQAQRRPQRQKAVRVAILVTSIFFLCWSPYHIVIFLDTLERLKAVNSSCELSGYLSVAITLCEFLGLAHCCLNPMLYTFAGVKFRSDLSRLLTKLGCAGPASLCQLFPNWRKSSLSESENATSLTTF
experimental-details: FACS on cells expressing species orthologues
attribute-measured: binding result

binder="mAb 12A01 (antibody, V domains shown) VH: EVQLLESGGGLVQPGGSLRLSCAASGFTFSRYVMVWVRQAPGKGLDWVSGISPSGGVTRYADSVKGRFTISRDNSKNTLYLQMNSLRAEDTAMYYCARIRKEMTTISYFFDYWGQGTLVTVSS VL: DIQMTQSPDSLSASVGDRVTITCRASQGVDIYVAWYQQKPGKVPKLLMHSASTLASGVPSRFSGRGSGTDFTLTINSLQAEDVATYYCQSHNSAVVTFGQGTRLEIK" value_measured="no binding"
binder="mAb 80A10 (antibody, V domains shown) VH: EVQLLESGGGLVQPGGSLRLSCAASGFTFSMYVMKWVRQAPGKGLEWVSGIRSSGGDTSYADSVKGRFTISRDNSKNTLYLQMNSLRAEDTAVYYCARQSRYCNGGSCYSRAFDIWGQGTMVTVSS VL: QPPSASGTPGQRVTISCFGSNSNIGSTYAYWYQQVPGTAPKLLIYRNNQRPSGVPDRFSGSKSGTSASLAISGLRSEDEADYYCAAWDVNLSGHWVFGGGTKLTVLG" value_measured="no binding"
binder="mAb 40C01 (antibody, V domains shown, also called 40C01 VH-VL; 40C01 parental molecule) VH: EVQLLESGGGLVQPGGSLRLSCAASGFTFSRYVMVWVRQAPGKGLDWVSGISPSGGVTRYADSVKGRFTISRDNSKNTLYLQMNSLRAEDTAMYYCARIRKEMTTISYFFDYWGQGTLVTVSS VL: DIQMTRAPDSLSASVGDRVTITCRASQGVDIYVAWYQQKPGKAPKLLMHSASTLASGVPSRFSGRGSGTDFTLTINSLQAEDVATYYCQSHNSAVVTFGQGTRLEIK" value_measured="no binding"
